This collection of values is drawn from patent US8865745B2.

Let's look at some compounds and their measured PDE4 Inhibition [measured as −logIC50 (mol/l)].
- tested_on: PDE4B1 (Homo sapiens (Human), UniProt Q07343)
- Sequence (Q07343 whole entry): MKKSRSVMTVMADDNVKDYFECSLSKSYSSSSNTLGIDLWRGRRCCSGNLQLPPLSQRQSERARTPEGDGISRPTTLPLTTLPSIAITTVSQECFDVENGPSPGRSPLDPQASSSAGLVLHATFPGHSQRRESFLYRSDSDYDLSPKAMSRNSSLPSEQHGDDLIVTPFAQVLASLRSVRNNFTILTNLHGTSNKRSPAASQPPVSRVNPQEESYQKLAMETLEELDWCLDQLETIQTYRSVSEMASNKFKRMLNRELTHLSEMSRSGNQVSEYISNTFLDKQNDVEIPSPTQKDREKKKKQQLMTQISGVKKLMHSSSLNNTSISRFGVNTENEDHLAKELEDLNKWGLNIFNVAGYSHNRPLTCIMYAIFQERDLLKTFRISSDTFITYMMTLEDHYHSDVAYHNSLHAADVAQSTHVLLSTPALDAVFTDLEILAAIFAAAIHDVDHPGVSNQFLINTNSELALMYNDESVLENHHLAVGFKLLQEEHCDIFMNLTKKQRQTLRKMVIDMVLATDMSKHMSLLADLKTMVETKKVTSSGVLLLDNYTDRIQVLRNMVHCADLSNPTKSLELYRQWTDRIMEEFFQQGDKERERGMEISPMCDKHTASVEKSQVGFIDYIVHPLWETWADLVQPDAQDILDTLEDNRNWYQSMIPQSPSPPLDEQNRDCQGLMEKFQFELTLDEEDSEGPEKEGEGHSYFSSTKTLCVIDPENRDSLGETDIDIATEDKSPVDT
- protocol_notes: Inhibition of PDE4 activity, [3H]cAMP SPA enzyme assay with recombinant PDE4B1
- Type: biochemical
- condition_info: recombinant PDE4B1 expressed in SF21 cells, 0.5 μM cAMP, 37° C.
value_type: PDE4 Inhibition [measured as −logIC50 (mol/l)]

1. COc1ccc(C2=NN(C3CCN(C(=O)CN4C(=O)CSCC4=O)CC3)C(=O)C2(C)C)cc1OC | 8.27 −logIC50 (mol/l)
2. COc1ccc(C2=NN(C3CCN(C(=O)CN4C(=O)CCC4=O)CC3)C(=O)C2(C)C)cc1OCC(F)(F)F | 6.84 −logIC50 (mol/l)
3. CCCC1(C)C(=O)N(C2CCN(C(=O)CN3C(=O)CCC3=O)CC2)N=C1c1ccc(OC)c(OC)c1 (stereo not drawn) | 8.08 −logIC50 (mol/l)
4. COc1ccc(C2=NN(C3CCN(C(=O)CN4C(=O)CCC4=O)CC3)C(=O)C2(C)C)cc1OCC1CC1 | 7.15 −logIC50 (mol/l)
5. COc1ccc(C2=NN(C3CCN(C(=O)CN4C(=O)CCCC4=O)CC3)C(=O)C2(C)C)cc1OC | 7.90 −logIC50 (mol/l)
6. CCOc1ccc(C2=NN(C3CCN(C(=O)CN4C(=O)CCC4=O)CC3)C(=O)C2(C)C)cc1OCC | 7.75 −logIC50 (mol/l)
7. COc1ccc(C2=NN(C3CCN(C(=O)CN4C(=O)CCC4=O)CC3)C(=O)C23CCCC3)cc1OC | 7.79 −logIC50 (mol/l)
8. CCC1(C)C(=O)N(C2CCN(C(=O)CN3C(=O)CCC3=O)CC2)N=C1c1ccc(OC)c(OC)c1 (stereo not drawn) | 7.46 −logIC50 (mol/l)
9. COc1ccc(C2=NN(C3CCN(C(=O)CN4C(=O)COCC4=O)CC3)C(=O)C2(C)C)cc1OC | 8.29 −logIC50 (mol/l)
10. COc1ccc(C2=NN(C3CCN(C(=O)CN4C(=O)CS(=O)(=O)CC4=O)CC3)C(=O)C2(C)C)cc1OC | 8.42 −logIC50 (mol/l)
11. COc1ccc(C2=NN(C3CCN(C(=O)CN4C(=O)CCC4=O)CC3)C(=O)C2(C)C)c2c1OC1(CCCC1)C2 | 8.23 −logIC50 (mol/l)
12. COc1ccc(C2=NN(C3CCN(C(=O)CN4C(=O)CCC4=O)CC3)C(=O)C2(C)C)cc1OC | 8.09 −logIC50 (mol/l)
